Recorded values, source ChEMBL document CHEMBL1134419.

species: Homo sapiens; assay: Percent inhibition of collagen stimulated platelet aggregation at a concentration of 10 uM; assay type: functional
Form field: inhibition at 10 µM (one value per entry).
measured_metric: inhibition at 10 µM (%)

>>> df
                            chemical_smiles  unit_string  reported_measurement
0  CN(C)CCCOc1cc(C(=O)Nc2ccc3[nH]ccc3c2)n(Cc2ccccc2)n1            %                    66
1  CN(C)CCCOc1cc(C(=O)Nc2cccc(F)c2)n(Cc2ccccc2)n1            %                    95
2  CN(C)CCCOc1cc(C(=O)Nc2ccc3ccccc3n2)n(Cc2ccccc2)n1            %                    57
3  CN(C)CCCOc1cc(C(=O)Nc2cc(F)cc(C(F)(F)F)c2)n(Cc2ccccc2)n1            %                    43
4  CN(C)CCCOc1cc(C(=O)Nc2cccc(Cl)c2)n(Cc2ccccc2)n1            %                    95
5  COc1ccc(-c2ccccc2)cc1NC(=O)c1cc(OCCCN(C)C)nn1Cc1ccccc1            %                    95
6  CN(C)CCCOc1cc(C(=O)Nc2nccc3ccccc23)n(Cc2ccccc2)n1            %                    80
7  CN(C)CCCOc1cc(C(=O)Nc2nc3c(s2)CCCC3)n(Cc2ccccc2)n1            %                    92
8  COc1cc(NC(=O)c2cc(OCCCN(C)C)nn2Cc2ccccc2)cc(OC)c1OC            %                    66
9  CN(C)CCCOc1cc(C(=O)Nc2ccc(Cl)cc2F)n(Cc2ccccc2)n1            %                    96

---

system: Rattus norvegicus; assay: Area under curve at the dose of 5 mg/Kg administered perorally in rats; format: ADME, organism-based; conditions: in vivo, po
measured_metric: AUC

>>> df
                            chemical_smiles  measured_metric  reported_measurement
0  COc1ccc(NC(=O)c2cc(OCCCN(C)C)nn2Cc2ccccc2)cc1              AUC          61.1 ng·h/mL

---

assay: Stimulation of soluble guanylate cyclase (sGC) using baculovirus expressed and partially purified bovine sGC at 1 uM concentration relative to benzydamine
Please note: Relative enzyme activity exactly at 0.9 is not satisfied. Only values below 0.9 get satisfied.

>>> print(df.to_string())
                             chemical_smiles  classification
 0  COc1cccc(NC(=O)c2cc(OCCCN(C)C)nn2Cc2ccccc2)c1       satisfied
 1  CN(C)CCCOc1cc(C(=O)Nc2ccc3ccccc3n2)n(Cc2ccccc2)n1   not satisfied
 2  CN(C)CCCOc1cc(C(=O)Nc2nc3c(s2)CCCC3)n(Cc2ccccc2)n1       satisfied
 3  CN(C)CCCOc1cc(C(=O)Nc2nccc3ccccc23)n(Cc2ccccc2)n1   not satisfied
 4  CN(C)CCCOc1cc(C(=O)Nc2ccn(-c3ccccc3)n2)n(Cc2ccccc2)n1       satisfied
 5  CN(C)CCCOc1cc(C(=O)Nc2cccc(-c3cnco3)c2)n(Cc2ccccc2)n1       satisfied
 6  CN(C)CCCOc1cc(C(=O)Nc2ccccc2F)n(Cc2ccccc2)n1   not satisfied
 7  CN(C)CCCOc1cc(C(=O)Nc2nccs2)n(Cc2ccccc2)n1   not satisfied
 8  CN(C)CCCOc1cc(C(=O)Nc2cccc(F)c2)n(Cc2ccccc2)n1       satisfied
 9  COc1cc(NC(=O)c2cc(OCCCN(C)C)nn2Cc2ccccc2)cc(OC)c1OC   not satisfied
10  COc1ccc(-c2ccccc2)cc1NC(=O)c1cc(OCCCN(C)C)nn1Cc1ccccc1       satisfied
11  CN(C)CCCOc1cc(C(=O)Nc2ccc3c(c2)C(=O)N(C)C3=O)n(Cc2ccccc2)n1       satisfied
12  CN(C)CCCOc1cc(C(=O)Nc2ccc(-c3csnn3)cc2)n(Cc2ccccc2)n1       satisfied
13  CN(C)CCCOc1cc(C(=O)Nc2cc(F)cc(F)c2)n(Cc2ccccc2)n1       satisfied
14  COc1cc(NC(=O)c2cc(OCCCN(C)C)nn2Cc2ccccc2)cc(OC)c1       satisfied
15  CN(C)CCCOc1cc(C(=O)Nc2ccc(Br)cc2)n(Cc2ccccc2)n1       satisfied
16  CN(C)CCCOc1cc(C(=O)Nc2ccc(OC(F)(F)F)cc2)n(Cc2ccccc2)n1   not satisfied
17  COc1ccc(NC(=O)c2cc(OCCCN(C)C)nn2Cc2ccccc2)cc1   not satisfied
